Reference for the values: PubChem BioAssay AID1963446

System: 993429-296-R-J1-PDC complex spheroid growth, percent test/control
Experiment: Anticancer human tumor 993429-296-R-J1-PDC patient-derived uterine sarcoma cell line growth inhibition [Asc]; active means viability on the fitted dose curve at most 10% of control; inactive means the rest
Settings: second compound 0.01 µM; first compound 10 µM
Lab note: assign the record to one of active, inactive

- compound: "C=C(F)C(=O)N1CCN(c2nc(OCC3CCCN3C)nc3c2CCN(c2cccc4cccc(Cl)c24)C3)CC1CC#N (centres undefined) + CNC(C)C(=O)NC1CN(S(=O)(=O)c2cccc(S(=O)(=O)N3CCC4CCC(C(=O)NC(c5ccccc5)c5ccccc5)N4C(=O)C(NC(=O)C(C)NC)C3)c2)CCC2CCC(C(=O)NC(c3ccccc3)c3ccccc3)N2C1=O"
  assigned-class: "active"
- compound: "O=C(c1cc(Cc2n[nH]c(=O)c3ccccc23)ccc1F)N1CCN(C(=O)C2CC2)CC1 + CNC(C)C(=O)NC1CN(S(=O)(=O)c2cccc(S(=O)(=O)N3CCC4CCC(C(=O)NC(c5ccccc5)c5ccccc5)N4C(=O)C(NC(=O)C(C)NC)C3)c2)CCC2CCC(C(=O)NC(c3ccccc3)c3ccccc3)N2C1=O"
  assigned-class: "inactive"
- compound: "C#Cc1c(F)ccc2cc(O)cc(-c3ncc4c(N5CC6CCC(C5)N6)nc(OCC56CCCN5CC(F)C6)nc4c3F)c12 (centres undefined) + CNC(C)C(=O)NC1CN(S(=O)(=O)c2cccc(S(=O)(=O)N3CCC4CCC(C(=O)NC(c5ccccc5)c5ccccc5)N4C(=O)C(NC(=O)C(C)NC)C3)c2)CCC2CCC(C(=O)NC(c3ccccc3)c3ccccc3)N2C1=O"
  assigned-class: "inactive"

Prompt: Please let me know the test result on file for C=CC(=O)N1CCN(c2nc(=O)n(-c3c(C)ccnc3C(C)C)c3nc(-c4c(O)cccc4F)c(F)cc23)C(C)C1 (centres undefined) + CNC(C)C(=O)NC1CN(S(=O)(=O)c2cccc(S(=O)(=O)N3CCC4CCC(C(=O)NC(c5ccccc5)c5ccccc5)N4C(=O)C(NC(=O)C(C)NC)C3)c2)CCC2CCC(C(=O)NC(c3ccccc3)c3ccccc3)N2C1=O .
Completion: inactive

----------
Tested on: 993429-296-R-J1-PDC complex spheroid growth, percent test/control
Experiment: Anticancer human tumor 993429-296-R-J1-PDC cell line growth inhibition [Asc];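 further: spheroids exposed to compounds for seven days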
Details: second compound 1 µM; first compound 0.01 µM; stronger effect = lower value
The molecules listed here are annotated with their viability, T/C.
A number alone suffices; assume %.

- molecule: "NC1CCC(NC2CC2c2ccccc2)CC1 (stereo not drawn) + CNC(C)C(=O)NC1CN(S(=O)(=O)c2cccc(S(=O)(=O)N3CCC4CCC(C(=O)NC(c5ccccc5)c5ccccc5)N4C(=O)C(NC(=O)C(C)NC)C3)c2)CCC2CCC(C(=O)NC(c3ccccc3)c3ccccc3)N2C1=O"
  endpoint-name: "viability, T/C"
  unit: "%"
  number: 41.1
- molecule: "NC1CCC(NC2CC2c2ccccc2)CC1 (stereo not drawn) + Cc1c(S(C)(=O)=O)c(-c2cc(F)cc(N3CCN(c4ccc(NS(=O)(=O)c5ccc(NC(CCN6CCC(C(=O)OCCCP(=O)(O)O)CC6)CSc6ccccc6)c(S(=O)(=O)C(F)(F)F)c5)cc4)CC3)c2)c(-c2ccc(Cl)cc2)n1C(C)C"
  endpoint-name: "viability, T/C"
  unit: "%"
  number: 30.5

Continue with the next molecule.
Prompt: Could you share what viability, T/C was measured for COc1c(OCCCN2CCOCC2)ccc2c3n(c(=NC(=O)c4cnc(N)nc4)nc12)CCN3 + CNC(C)C(=O)NC1CN(S(=O)(=O)c2cccc(S(=O)(=O)N3CCC4CCC(C(=O)NC(c5ccccc5)c5ccccc5)N4C(=O)C(NC(=O)C(C)NC)C3)c2)CCC2CCC(C(=O)NC(c3ccccc3)c3ccccc3)N2C1=O , tested on 993429-296-R-J1-PDC complex spheroid growth, percent test/control?
Completion: 41.6

----------
Tested on: 993429-296-R-J1-PDC complex spheroid growth, percent test/control
Assay: Anticancer human tumor 993429-296-R-J1-PDC cell line growth inhibition [Asc]; active = viability on the fitted dose curve at most 10% of control; inactive = the rest;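 further: spheroids exposed to compounds for seven days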
Details: second compound 1 µM; first compound 10 µM
Outcomes you can answer with include only these: 1 (active), 0 (inactive)

- molecule: "C=CC(=O)N1CCN(c2nc(=O)n(-c3c(C)ccnc3C(C)C)c3nc(-c4c(O)cccc4F)c(F)cc23)C(C)C1 (centres undefined) + CNC(C)C(=O)NC1CN(S(=O)(=O)c2cccc(S(=O)(=O)N3CCC4CCC(C(=O)NC(c5ccccc5)c5ccccc5)N4C(=O)C(NC(=O)C(C)NC)C3)c2)CCC2CCC(C(=O)NC(c3ccccc3)c3ccccc3)N2C1=O"
  assigned-class: 0
- molecule: "O=C(c1cc(Cc2n[nH]c(=O)c3ccccc23)ccc1F)N1CCN(C(=O)C2CC2)CC1 + Cc1c(S(C)(=O)=O)c(-c2cc(F)cc(N3CCN(c4ccc(NS(=O)(=O)c5ccc(NC(CCN6CCC(C(=O)OCCCP(=O)(O)O)CC6)CSc6ccccc6)c(S(=O)(=O)C(F)(F)F)c5)cc4)CC3)c2)c(-c2ccc(Cl)cc2)n1C(C)C"
  assigned-class: 1
- molecule: "C#Cc1c(F)ccc2cc(O)cc(-c3ncc4c(N5CC6CCC(C5)N6)nc(OCC56CCCN5CC(F)C6)nc4c3F)c12 (centres undefined) + CNC(C)C(=O)NC1CN(S(=O)(=O)c2cccc(S(=O)(=O)N3CCC4CCC(C(=O)NC(c5ccccc5)c5ccccc5)N4C(=O)C(NC(=O)C(C)NC)C3)c2)CCC2CCC(C(=O)NC(c3ccccc3)c3ccccc3)N2C1=O"
  assigned-class: 0

Continue with the next molecule.
Prompt: Answer briefly: the call reported for C=CC(=O)N1CCN(c2nc(=O)n(-c3c(C)ccnc3C(C)C)c3nc(-c4c(O)cccc4F)c(F)cc23)C(C)C1 (centres undefined) + Cc1c(S(C)(=O)=O)c(-c2cc(F)cc(N3CCN(c4ccc(NS(=O)(=O)c5ccc(NC(CCN6CCC(C(=O)OCCCP(=O)(O)O)CC6)CSc6ccccc6)c(S(=O)(=O)C(F)(F)F)c5)cc4)CC3)c2)c(-c2ccc(Cl)cc2)n1C(C)C in this assay.
Completion: 0

----------
Tested on: 993429-296-R-J1-PDC complex spheroid growth, percent test/control
Assay: Anticancer human tumor 993429-296-R-J1-PDC cell line growth inhibition [Asc];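 further: spheroids exposed to compounds for seven days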
Conditions: second compound 0.1 µM; first compound 3.16 µM; stronger effect = lower value
Lab note: anything with viability, T/C below 40% is marked Y; values at 40% or higher are marked N.

Prompt: # TODO verify viability, T/C < 40% strictly for this compound: C#Cc1c(F)ccc2cc(O)cc(-c3ncc4c(N5CC6CCC(C5)N6)nc(OCC56CCCN5CC(F)C6)nc4c3F)c12 (stereo not given) + CNC(C)C(=O)NC1CN(S(=O)(=O)c2cccc(S(=O)(=O)N3CCC4CCC(C(=O)NC(c5ccccc5)c5ccccc5)N4C(=O)C(NC(=O)C(C)NC)C3)c2)CCC2CCC(C(=O)NC(c3ccccc3)c3ccccc3)N2C1=O
Completion: N

Prompt: Please determine if O=C(c1cc(Cc2n[nH]c(=O)c3ccccc23)ccc1F)N1CCN(C(=O)C2CC2)CC1 + Cc1c(S(C)(=O)=O)c(-c2cc(F)cc(N3CCN(c4ccc(NS(=O)(=O)c5ccc(NC(CCN6CCC(C(=O)OCCCP(=O)(O)O)CC6)CSc6ccccc6)c(S(=O)(=O)C(F)(F)F)c5)cc4)CC3)c2)c(-c2ccc(Cl)cc2)n1C(C)C is below 40% in terms of viability, T/C.
Completion: Y

Prompt: Lab log: compare recorded viability, T/C with 40%; is it strictly lower for C=CC(=O)N1CCN(c2nc(=O)n(-c3c(C)ccnc3C(C)C)c3nc(-c4c(O)cccc4F)c(F)cc23)C(C)C1 (stereo not given) + Cc1c(S(C)(=O)=O)c(-c2cc(F)cc(N3CCN(c4ccc(NS(=O)(=O)c5ccc(NC(CCN6CCC(C(=O)OCCCP(=O)(O)O)CC6)CSc6ccccc6)c(S(=O)(=O)C(F)(F)F)c5)cc4)CC3)c2)c(-c2ccc(Cl)cc2)n1C(C)C ?
Completion: N

Prompt: Is it true that viability, T/C reported for C=C(F)C(=O)N1CCN(c2nc(OCC3CCCN3C)nc3c2CCN(c2cccc4cccc(Cl)c24)C3)CC1CC#N (stereo not given) + Cc1c(S(C)(=O)=O)c(-c2cc(F)cc(N3CCN(c4ccc(NS(=O)(=O)c5ccc(NC(CCN6CCC(C(=O)OCCCP(=O)(O)O)CC6)CSc6ccccc6)c(S(=O)(=O)C(F)(F)F)c5)cc4)CC3)c2)c(-c2ccc(Cl)cc2)n1C(C)C is less than 40%?
Completion: Y

Prompt: Strictly below 40% in viability, T/C? O=C(c1cc(Cc2n[nH]c(=O)c3ccccc23)ccc1F)N1CCN(C(=O)C2CC2)CC1 + CNC(C)C(=O)NC1CN(S(=O)(=O)c2cccc(S(=O)(=O)N3CCC4CCC(C(=O)NC(c5ccccc5)c5ccccc5)N4C(=O)C(NC(=O)C(C)NC)C3)c2)CCC2CCC(C(=O)NC(c3ccccc3)c3ccccc3)N2C1=O
Completion: Y
